# Target desc: human mAChR M1 (Homo sapiens)
# Experiment description: mAChR M1 cell-based functional assay: calcium mobilization, positive allosteric modulator mode (increase in EC20 acetylcholine response)
# Condition notes: Table 2; human M1; read-out: Human M1 Emax (%)
Provide the recorded Emax for the entries that follow.
Numeric answer plus unit only.

Return reported Emax values for all items listed beneath this line.
1. Cc1nc(-c2ccc(Cc3cc(C(=O)N[C@H]4CCC[C@@H]4O)nc4c(C)csc34)cc2)co1
2. O=C(N[C@@H]1CCOC1)c1cc(Cc2ccc(-c3cncs3)cc2)c2sccc2n1
3. Cc1ccc(Cc2cc(C(=O)NC34CC5CC(CC(O)(C5)C3)C4)nc3c(C)csc23)cn1
4. Cc1csc2c(Cc3ccc(-c4ccn(C)n4)cc3)cc(C(=O)NC3CC(F)C3)nc12 (stereo not drawn)
5. O=C(NCC1CCOCC1)c1cc(Cc2ccc(-c3cncs3)cc2)c2sccc2n1

1: 69.7%; 2: 51.4%; 3: 48.4%; 4: 62.1%; 5: 69.5%

Tell me its Emax given Cc1nn(C)cc1-c1ccc(Cc2cc(C(=O)N[C@H]3CCCC[C@@H]3O)nc3ccsc23)cc1 as the entry.
48.1%

###

# Target desc: human mAChR M1 (Homo sapiens, UniProt P11229)
# Experiment description: mAChR M1 cell-based functional assay: calcium mobilization, positive allosteric modulator mode (increase in EC20 acetylcholine response)
# Condition notes: Table 2; human M1; read-out: Human M1 Emax (%)
Measurement type: Emax (%)
Give bare numbers, in %.

Cc1ccc(Cc2cc(C(=O)N[C@H]3CC[C@@H]3O)nc3c(C)csc23)cn1	77.7
O=C(NC1CCOCC1)c1ccc(Cc2cc(C(=O)NC3CCOCC3)nc3ccsc23)cc1	69.9
Cc1nc(-c2ccc(Cc3cc(C(=O)N[C@H]4CCCC[C@@H]4O)nc4ccsc34)cc2)cs1	80.7
Cc1ccc(Cc2cc(C(=O)NC3CCCNC3=O)nc3c(C)csc23)cn1 (centres unmarked)	71

Could you now consider this next compound?
Tell me its Emax given Cn1ccc2nc(C(=O)NC3CCOCC3)cc(Cc3ccc(-c4cscn4)cc3)c21 as the entry.
71.7

###

Provide the recorded pEC50 for the entries that follow.
# Target desc: human mAChR M1 (Homo sapiens, UniProt P11229)
# Sequence (P11229 1-460): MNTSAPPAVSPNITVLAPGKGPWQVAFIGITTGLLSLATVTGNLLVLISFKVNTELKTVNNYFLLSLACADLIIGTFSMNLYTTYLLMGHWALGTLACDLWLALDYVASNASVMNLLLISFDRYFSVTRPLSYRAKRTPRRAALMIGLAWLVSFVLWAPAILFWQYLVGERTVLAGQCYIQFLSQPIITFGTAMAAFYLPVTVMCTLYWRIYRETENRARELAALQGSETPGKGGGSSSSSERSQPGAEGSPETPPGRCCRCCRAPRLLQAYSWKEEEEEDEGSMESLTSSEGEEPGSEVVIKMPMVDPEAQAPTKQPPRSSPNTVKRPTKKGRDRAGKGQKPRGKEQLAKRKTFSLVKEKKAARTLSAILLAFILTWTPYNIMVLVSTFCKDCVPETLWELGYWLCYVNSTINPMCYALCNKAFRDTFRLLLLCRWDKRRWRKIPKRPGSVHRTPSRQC
# Experiment description: mAChR M1 cell-based functional assay: calcium mobilization, positive allosteric modulator mode (increase in EC20 acetylcholine response)
# Condition notes: Table 2; human M1; read-out: Human M1 EC50
Answers are plain numbers, as −log10 of the molar value.

Return reported pEC50 values for all items listed beneath this line.
1. Cc1nn(C)cc1-c1ccc(Cc2cc(C(=O)N[C@H]3CCC[C@@H]3O)nc3ccsc23)cc1 [Compound 247]
2. Cn1ccc(-c2ccc(Cc3cc(C(=O)N[C@@H]4CCOC4)nc4ccsc34)cn2)n1 [Compound 418]
3. Cn1cc(-c2ccc(Cc3cc(C(=O)N[C@H]4CCOC4)nc4ccsc34)cc2)nn1 [Compound 151]
4. O=C(NC[C@@H]1CCCO1)c1cc(Cc2ccc(-n3cccn3)cc2)c2sccc2n1 [Compound 286]

1. 5.39
2. 5.29
3. 6.23
4. 6.69

The origin of these recorded values is patent US11111251B2.
